system: SK-hep1 liver tumors; assay: Transplanted tumor in nude mice, intraperitoneal, SK-hep1; assay type: in vivo, BALB/c nude mice; conditions: SK-hep1, 5 mg/kg i.p. once every 3 days, 8 administrations
Marks after values point to notes of the source that are not given here.
measurement-name: Tumor inhibition rate

Ask | Tumor inhibition rate lookup needed for COc1ccc2c(c1)c(CC(=O)NC(Cc1ccc(-c3ccccc3)cc1)C(=O)NC1CC(C)(C)NC(C)(C)C1)c(C)n2C(=O)c1ccc(Cl)cc1 (stereo not drawn) [PL-AC-205] , thanks.
Reply | 62.0** %

Ask | Would you mind telling me what Tumor inhibition rate value was observed for CC1(C)CC(NC(=O)C(Cc2ccc(-c3ccccc3)cc2)NC(=O)c2cc3ccccc3n2Cc2ccccc2)CC(C)(C)N1 (stereo not drawn) [PL-AC-15, reference compound] ?
Reply | 60.6** %

# context switch: different compound, same Tumor inhibition rate
Ask | Recorded Tumor inhibition rate for CC(=O)Oc1ccccc1C(=O)NC(Cc1ccc(-c2ccccc2)cc1)C(=O)NC1CC(C)(C)NC(C)(C)C1 (stereo not drawn) [PL-AC-201] , please?
Reply | 61.2** %

====

test system: HepG-2 liver tumors; test: Transplanted tumor in nude mice, intraperitoneal, HepG-2; assay type: in vivo, BALB/c nude mice; details: HepG-2, 5 mg/kg i.p. once every 3 days, 8 administrations
Marks after values point to notes of the source that are not given here.
For each record, write down the corresponding Tumor inhibition rate.

Record excerpt, results attached:
Ask | Data request, read-out Tumor inhibition rate, for CC(=O)Oc1ccccc1C(=O)NC(Cc1ccc(-c2ccccc2)cc1)C(=O)NC1CC(C)(C)NC(C)(C)C1 (stereo not shown) [PL-AC-201]
Reply | 69.3** %

Ask | Need Tumor inhibition rate, item CC1(C)CC(NC(=O)C(Cc2ccc(-c3ccccc3)cc2)NC(=O)c2cc3ccccc3n2Cc2ccccc2)CC(C)(C)N1 (stereo not shown) [PL-AC-15, reference compound]
Reply | 66.7** %

Continuing:
Ask | Entry C/C(=C1/c2ccc(F)cc2C(CC(=O)NC(Cc2ccc(-c3ccccc3)cc2)C(=O)NC2CC(C)(C)NC(C)(C)C2)C1C)c1ccc([S+](C)[O-])cc1 (stereo not shown) [PL-AC-204] has what Tumor inhibition rate?
Reply | 65.1** %

====

tested on: human red blood cells; experiment: Detection of hemolytic activity; type: cell-based; conditions: human red blood cells, 37° C., 2h; first concentration with ODtest-OD negative >0.1
Exercise: for every item that follows, state its recorded MHC.
Give bare numbers, in µg/mL.

Return reported MHC values for all items listed beneath this line.
1. CC1(C)CC(NC(=O)C(Cc2ccc(-c3ccccc3)cc2)NC(=O)c2cc3ccccc3n2Cc2ccccc2)CC(C)(C)N1 (stereo not shown) [PL-AC-15, reference compound]
2. CC(=O)Oc1ccccc1C(=O)NC(Cc1ccc(-c2ccccc2)cc1)C(=O)NC1CC(C)(C)NC(C)(C)C1 (stereo not shown) [PL-AC-201]
3. COc1ccc2c(c1)c(CC(=O)NC(Cc1ccc(-c3ccccc3)cc1)C(=O)NC1CC(C)(C)NC(C)(C)C1)c(C)n2C(=O)c1ccc(Cl)cc1 (stereo not shown) [PL-AC-205]

Reply |
1: 1000; 2: 3000; 3: 3000

Ask | Quick check: MHC of COc1ccc2cc(C(C)C(=O)NC(Cc3ccc(-c4ccccc4)cc3)C(=O)NC3CC(C)(C)NC(C)(C)C3)ccc2c1 (stereo not shown) [PL-AC-202] ?
Reply | 3000
